Assay: GO radical scavenging activity (TAC assay)
Format: biochemical
Conditions: ethanol, absorbance 428 nm
For each record, check the reported IC50: if it is below 3000 nM write t, else write f.

molecule	class.name
CS(=O)(=O)[O-].O=C(/C=C/c1ccc(O)c(O)c1)NCC[P+](c1ccccc1)(c1ccccc1)c1ccccc1 [AntiOxCIN1, reference compound]	f
CS(=O)(=O)[O-].O=C(/C=C/c1ccc(O)c(O)c1)NCCCCCC[P+](c1ccccc1)(c1ccccc1)c1ccccc1 [AntiOxCIN2, methanesulfonate]	f
CS(=O)(=O)[O-].O=C(/C=C/c1cc(O)c(O)c(O)c1)NCCCCCC[P+](c1ccccc1)(c1ccccc1)c1ccccc1 [AntiOxCIN4, methanesulfonate]	f
CS(=O)(=O)[O-].O=C(/C=C/c1ccc(O)c(O)c1)NCCCCCCCC[P+](c1ccccc1)(c1ccccc1)c1ccccc1 [AntiOxCIN3]	t
CS(=O)(=O)[O-].O=C(/C=C/c1ccc(O)c(O)c1)NCCCCCCCCCC[P+](c1ccccc1)(c1ccccc1)c1ccccc1 [AntiOxCIN6, methanesulfonate]	t
O=C(O)/C=C/c1ccc(O)c(O)c1 [Caffeic acid, caffeic acid, reference compound]	f
CS(=O)(=O)[O-].O=C(/C=C/c1cc(O)c(O)c(O)c1)NCCCCCCCC[P+](c1ccccc1)(c1ccccc1)c1ccccc1 [AntiOxCIN5, methanesulfonate]	t
CS(=O)(=O)[O-].O=C(/C=C/c1cc(O)c(O)c(O)c1)NCCCCCCCCCC[P+](c1ccccc1)(c1ccccc1)c1ccccc1 [AntiOxCIN7, methanesulfonate]	t

* * *

The following compounds are listed with their measured Lag Phase values.
Test system: rat liver mitochondria (RLM)
Assay: Mitochondrial transmembrane electric potential (ΔΨ) of RLM, safranine fluorescence
Type: biochemical
Settings: glutamate/malate; 10 μM

compound	Lag Phase (s)
CS(=O)(=O)[O-].O=C(/C=C/c1cc(O)c(O)c(O)c1)NCCCCCCCCCC[P+](c1ccccc1)(c1ccccc1)c1ccccc1 [AntiOxCIN7]	58.6
CS(=O)(=O)[O-].O=C(/C=C/c1ccc(O)c(O)c1)NCCCCCC[P+](c1ccccc1)(c1ccccc1)c1ccccc1 [AntiOxCIN2]	88.7
CS(=O)(=O)[O-].O=C(/C=C/c1cc(O)c(O)c(O)c1)NCCCCCC[P+](c1ccccc1)(c1ccccc1)c1ccccc1 [AntiOxCIN4]	65.7
CS(=O)(=O)[O-].O=C(/C=C/c1cc(O)c(O)c(O)c1)NCCCCCCCC[P+](c1ccccc1)(c1ccccc1)c1ccccc1 [AntiOxCIN5]	53.2
CS(=O)(=O)[O-].O=C(/C=C/c1ccc(O)c(O)c1)NCCCCCCCCCC[P+](c1ccccc1)(c1ccccc1)c1ccccc1 [AntiOxCIN6]	47.8
CS(=O)(=O)[O-].O=C(/C=C/c1ccc(O)c(O)c1)NCCCCCCCC[P+](c1ccccc1)(c1ccccc1)c1ccccc1 [AntiOxCIN3]	73.8

* * *

System: rat liver mitochondria (RLM)
Experiment: Mitochondrial transmembrane electric potential (ΔΨ) of RLM, safranine fluorescence
Format: biochemical
Conditions: glutamate/malate; 2.5 μM
# maps each entry to its Lag Phase
reported.metric: Lag Phase (s)

compound	reported.metric	unit	val
COC1=C(OC)C(=O)C(CCCCCCCCCC[P+](c2ccccc2)(c2ccccc2)c2ccccc2)=C(C)C1=O.CS(=O)(=O)[O-] [MitoQ, reference compound]	Lag Phase	s	86.5
CS(=O)(=O)[O-].O=C(/C=C/c1ccc(O)c(O)c1)NCCCCCCCCCC[P+](c1ccccc1)(c1ccccc1)c1ccccc1 [AntiOxCIN6]	Lag Phase	s	73.2
CS(=O)(=O)[O-].O=C(/C=C/c1cc(O)c(O)c(O)c1)NCCCCCCCC[P+](c1ccccc1)(c1ccccc1)c1ccccc1 [AntiOxCIN5]	Lag Phase	s	74.4

* * *

Below: a set of entries, each annotated with reported Repolarization Potential (ΔΨ in - mV).
Test system: rat liver mitochondria (RLM)
Test: Mitochondrial transmembrane electric potential (ΔΨ) of RLM, safranine fluorescence
Type: biochemical
Conditions: succinate; 10 μM

compound	measured.on	Repolarization Potential (ΔΨ in - mV)
CS(=O)(=O)[O-].O=C(/C=C/c1cc(O)c(O)c(O)c1)NCCCCCCCCCC[P+](c1ccccc1)(c1ccccc1)c1ccccc1 [AntiOxCIN7]	rat liver mitochondria (RLM)	171.0
CS(=O)(=O)[O-].O=C(/C=C/c1cc(O)c(O)c(O)c1)NCCCCCCCC[P+](c1ccccc1)(c1ccccc1)c1ccccc1 [AntiOxCIN5]	rat liver mitochondria (RLM)	168.4
CS(=O)(=O)[O-].O=C(/C=C/c1ccc(O)c(O)c1)NCCCCCCCCCC[P+](c1ccccc1)(c1ccccc1)c1ccccc1 [AntiOxCIN6]	rat liver mitochondria (RLM)	149.0
CS(=O)(=O)[O-].O=C(/C=C/c1ccc(O)c(O)c1)NCCCCCC[P+](c1ccccc1)(c1ccccc1)c1ccccc1 [AntiOxCIN2]	rat liver mitochondria (RLM)	186.6
CS(=O)(=O)[O-].O=C(/C=C/c1ccc(O)c(O)c1)NCCCCCCCC[P+](c1ccccc1)(c1ccccc1)c1ccccc1 [AntiOxCIN3]	rat liver mitochondria (RLM)	184.2
